// provenance: patent US20040018971A1

Assign relative binding ratio (IC50 of standard peptide / IC50 of test peptide) to each entry below.
study-system: T1, HLA-A*0301 (human)
T1 construct: also called HLA-A3
assay-details: competition with 125I-labelled probe peptide for purified HLA-A*0301, gel filtration; ratio to standard peptide 941.12
One number for each entry, in ratio.

Sample answers from the record:
{"columns": ["binder", "assay-value"],
 "data": [
  ["ETLEEITGY (Synthetic peptide) [HER2/neu peptide, position 401, 9 amino acids (ETLEEITGY)]", 0.0002],
  ["DLAARNVLVK (Synthetic peptide) [HER2/neu peptide, position 845, 10 amino acids (DLAARNVLVK)]", 0.0018],
  ["ELMTFGAKPY (Synthetic peptide) [HER2/neu peptide, position 914, 10 amino acids (ELMTFGAKPY)]", 0.0002]
]}

State the recorded relative binding ratio (IC50 of standard peptide / IC50 of test peptide) for every item in the following list.
1. ESMPNPEGR (Synthetic peptide) [HER2/neu peptide, position 280, 9 amino acids (ESMPNPEGR)]
2. ETEYHADGGK (Synthetic peptide) [HER2/neu peptide, position 874, 10 amino acids (ETEYHADGGK)]
3. DVRPQPPSPR (Synthetic peptide) [HER2/neu peptide, position 1144, 10 amino acids (DVRPQPPSPR)]
4. ELHCPALVTY (Synthetic peptide) [HER2/neu peptide, position 265, 10 amino acids (ELHCPALVTY)]

Marked response:
1. 0.0003
2. 0.0003
3. 0.0003
4. 0.0002
